Exercise: state measured Cl for each of the molecules provided.
Organism: Rattus norvegicus
Experiment: Open TG-GATES - Regimen: Daily Repeat
Assay type: toxicity, organism-based, Sprague-Dawley
Design: regimen Daily Repeat, gender Male, age 6 weeks
Conditions: in vivo, po, 0 mg/kg, 72 h, tissue Plasma, route gavage, dose level Control, time 3 day
State the answer as a number, implicitly in meq/L.

State the recorded Cl for this entry: CC(=O)Oc1cc(C(C)C)c(OCCN(C)C)cc1C [MOXISYLYTE]
106.6

Next molecule: O=C(N[C@H](CO)[C@H](O)c1ccc([N+](=O)[O-])cc1)C(Cl)Cl [CHLORAMPHENICOL]
105

Next molecule: C[C@]12CCC(=O)C=C1CC[C@@H]1[C@@H]2CC[C@@]2(C)[C@H]1CC[C@]2(C)O [METHYLTESTOSTERONE]
108.2

====

Exercise: state measured K for each of the molecules provided.
Organism: Rattus norvegicus
Assay: Open TG-GATES - Regimen: Daily Repeat
Assay type: toxicity, organism-based, Sprague-Dawley
Parameters: regimen Daily Repeat, gender Male, age 6 weeks
Conditions: in vivo, po, 0 mg/kg, […], tissue Plasma, route gavage, dose level Control, time 14 day
State the answer as a number, implicitly in meq/L.

State the recorded K for this entry: O=C(N[C@H](CO)[C@H](O)c1ccc([N+](=O)[O-])cc1)C(Cl)Cl [CHLORAMPHENICOL]
4.5

Next molecule: C[C@]12CCC(=O)C=C1CC[C@@H]1[C@@H]2CC[C@@]2(C)[C@H]1CC[C@]2(C)O [METHYLTESTOSTERONE]
4.2

Next molecule: CCSCC[C@H](N)C(=O)O [ETHIONINE]
3.4

Next molecule: Nc1nc(N)c2nc(-c3ccccc3)c(N)nc2n1
4

Next molecule: CCC(C)(C)C(=O)O[C@H]1C[C@@H](C)C=C2C=C[C@H](C)[C@H](CC[C@@H]3C[C@@H](O)CC(=O)O3)[C@H]21 [SIMVASTATIN]
4.5

Next molecule: CCN1CCCC1CNC(=O)c1cc(S(N)(=O)=O)ccc1OC (centres undefined) [SULPIRIDE]
3.7

Next molecule: C#C[C@]1(O)CC[C@H]2[C@@H]3CCc4cc(O)ccc4[C@H]3CC[C@@]21C [ETHINYL ESTRADIOL]
3.9

Next molecule: CC(=O)Oc1cc(C(C)C)c(OCCN(C)C)cc1C [MOXISYLYTE]
4.2

Next molecule: CC(C)C(=O)Nc1ccc([N+](=O)[O-])c(C(F)(F)F)c1 [FLUTAMIDE]
3.8

====

Species on record: Rattus norvegicus
Test: Open TG-GATES - Regimen: Single
Format: toxicity, organism-based, Sprague-Dawley
Set-up: regimen Single, gender Male, age 6 weeks
Details: in vivo, po, 0 mg/kg, 9 h, tissue Plasma, route gavage, dose level Control
quantityMeasured: PL (mg/dL)
State the answer as a number, implicitly in mg/dL.

State the recorded PL for this entry: CCc1oc2ccccc2c1C(=O)c1cc(I)c(O)c(I)c1
128

Next compound: O=C(O)c1cccnc1
129

Next compound: CCSCC[C@H](N)C(=O)O
140

Next compound: CC(C)(S)[C@@H](N)C(=O)O
144

Next compound: C[C@](N)(Cc1ccc(O)c(O)c1)C(=O)O
114.8

Next compound: C[C@]12CCC(=O)C=C1CC[C@@H]1[C@@H]2CC[C@@]2(C)[C@H]1CC[C@]2(C)O
137.4

Next compound: C#C[C@]1(O)CC[C@H]2[C@@H]3CCc4cc(O)ccc4[C@H]3CC[C@@]21C
125.4

Next compound: CN1C(=O)OC(C)(C)C1=O
133.6

Next compound: CC(=N)S [THIOACETAMIDE]
124

Next compound: CC(=O)Oc1cc(C(C)C)c(OCCN(C)C)cc1C
133.2

Next compound: O=C(N[C@H](CO)[C@H](O)c1ccc([N+](=O)[O-])cc1)C(Cl)Cl
145.8

Next compound: CCN1CCCC1CNC(=O)c1cc(S(N)(=O)=O)ccc1OC (stereo unspecified) [SULPIRIDE]
125

Next compound: CC(C)C(=O)Nc1ccc([N+](=O)[O-])c(C(F)(F)F)c1 [FLUTAMIDE]
126.8

Next compound: CCC(C)(C)C(=O)O[C@H]1C[C@@H](C)C=C2C=C[C@H](C)[C@H](CC[C@@H]3C[C@@H](O)CC(=O)O3)[C@H]21
110.8

Next compound: Nc1nc(N)c2nc(-c3ccccc3)c(N)nc2n1
132.6

Next compound: Oc1ncnc2[nH]ncc12
136.4

====

Exercise: state measured TBIL for each of the molecules provided.
Organism: Rattus norvegicus
Test: Open TG-GATES - Regimen: Single
Format: toxicity, organism-based, Sprague-Dawley
Parameters: regimen Single, gender Male, age 6 weeks
Details: in vivo, po, 0 mg/kg, 9 h, tissue Plasma, route gavage, dose level Control
State the answer as a number, implicitly in mg/dL.

State the recorded TBIL for this entry: CCC(C)(C)C(=O)O[C@H]1C[C@@H](C)C=C2C=C[C@H](C)[C@H](CC[C@@H]3C[C@@H](O)CC(=O)O3)[C@H]21
0.4

Next molecule: CC(C)(S)[C@@H](N)C(=O)O
0.034

Next molecule: CCSCC[C@H](N)C(=O)O
0.1

Next molecule: C#C[C@]1(O)CC[C@H]2[C@@H]3CCc4cc(O)ccc4[C@H]3CC[C@@]21C
0.04

Next molecule: C[C@](N)(Cc1ccc(O)c(O)c1)C(=O)O
0.076

Next molecule: C[C@]12CCC(=O)C=C1CC[C@@H]1[C@@H]2CC[C@@]2(C)[C@H]1CC[C@]2(C)O
0.044

Next molecule: Nc1nc(N)c2nc(-c3ccccc3)c(N)nc2n1
0.058

Next molecule: CC(=O)Oc1cc(C(C)C)c(OCCN(C)C)cc1C
0.014

Next molecule: Oc1ncnc2[nH]ncc12
0.4

Next molecule: CCc1oc2ccccc2c1C(=O)c1cc(I)c(O)c(I)c1
0.3

====

Organism: Rattus norvegicus
Test: Open TG-GATES - Regimen: Single
Format: toxicity, organism-based, Sprague-Dawley
Set-up: regimen Single, gender Male, age 6 weeks
Settings: in vivo, po, 0 mg/kg, 3 h, tissue Plasma, route gavage, dose level Control
Exercise: state measured IP for each of the molecules provided.
State the answer as a number, implicitly in mg/dL.

State the recorded IP for this entry: CC(=O)Oc1cc(C(C)C)c(OCCN(C)C)cc1C [MOXISYLYTE]
7.7

Next molecule: CCSCC[C@H](N)C(=O)O [ETHIONINE]
9.3

Next molecule: C[C@]12CCC(=O)C=C1CC[C@@H]1[C@@H]2CC[C@@]2(C)[C@H]1CC[C@]2(C)O [METHYLTESTOSTERONE]
9.8

Next molecule: CCc1oc2ccccc2c1C(=O)c1cc(I)c(O)c(I)c1 [BENZIODARONE]
9.6

Next molecule: CN1C(=O)OC(C)(C)C1=O [TRIMETHADIONE]
8.9

====

Species: Rattus norvegicus
Assay: Open TG-GATES - Regimen: Single
Type: toxicity, organism-based, Sprague-Dawley
Set-up: regimen Single, gender Male, age 6 weeks
Conditions: in vivo, po, 0 mg/kg, 6 h, tissue Kidney, route gavage, dose level Control
quantityMeasured: KIDNEY_TOTAL (g)
State the answer as a number, implicitly in g.

State the recorded KIDNEY_TOTAL for this entry: C#C[C@]1(O)CC[C@H]2[C@@H]3CCc4cc(O)ccc4[C@H]3CC[C@@]21C [ETHINYL ESTRADIOL]
1.7

Next compound: C[C@](N)(Cc1ccc(O)c(O)c1)C(=O)O [METHYLDOPA]
1.6

Next compound: CCC(C)(C)C(=O)O[C@H]1C[C@@H](C)C=C2C=C[C@H](C)[C@H](CC[C@@H]3C[C@@H](O)CC(=O)O3)[C@H]21 [SIMVASTATIN]
1.7

Next compound: CC(C)C(=O)Nc1ccc([N+](=O)[O-])c(C(F)(F)F)c1 [FLUTAMIDE]
1.9

Next compound: Oc1ncnc2[nH]ncc12 [ALLOPURINOL]
1.8

Next compound: C[C@]12CCC(=O)C=C1CC[C@@H]1[C@@H]2CC[C@@]2(C)[C@H]1CC[C@]2(C)O [METHYLTESTOSTERONE]
1.7

Next compound: Nc1nc(N)c2nc(-c3ccccc3)c(N)nc2n1
1.9

Next compound: CCc1oc2ccccc2c1C(=O)c1cc(I)c(O)c(I)c1 [BENZIODARONE]
1.9

Next compound: CN1C(=O)OC(C)(C)C1=O [TRIMETHADIONE]
1.9

Next compound: CC(=N)S [THIOACETAMIDE]
1.8

Next compound: CCSCC[C@H](N)C(=O)O [ETHIONINE]
1.9

Next compound: CC(=O)Oc1cc(C(C)C)c(OCCN(C)C)cc1C [MOXISYLYTE]
1.9

Next compound: CC(C)(S)[C@@H](N)C(=O)O [PENICILLAMINE]
1.7

Next compound: CCN1CCCC1CNC(=O)c1cc(S(N)(=O)=O)ccc1OC (stereo not given) [SULPIRIDE]
1.8

Next compound: O=C(N[C@H](CO)[C@H](O)c1ccc([N+](=O)[O-])cc1)C(Cl)Cl [CHLORAMPHENICOL]
1.8

Sourced from ChEMBL document CHEMBL3885861
